Molecular target: T1, human Nectin-4 (Homo sapiens, UniProt Q96NY8)
T1 sequence (Q96NY8 32-510): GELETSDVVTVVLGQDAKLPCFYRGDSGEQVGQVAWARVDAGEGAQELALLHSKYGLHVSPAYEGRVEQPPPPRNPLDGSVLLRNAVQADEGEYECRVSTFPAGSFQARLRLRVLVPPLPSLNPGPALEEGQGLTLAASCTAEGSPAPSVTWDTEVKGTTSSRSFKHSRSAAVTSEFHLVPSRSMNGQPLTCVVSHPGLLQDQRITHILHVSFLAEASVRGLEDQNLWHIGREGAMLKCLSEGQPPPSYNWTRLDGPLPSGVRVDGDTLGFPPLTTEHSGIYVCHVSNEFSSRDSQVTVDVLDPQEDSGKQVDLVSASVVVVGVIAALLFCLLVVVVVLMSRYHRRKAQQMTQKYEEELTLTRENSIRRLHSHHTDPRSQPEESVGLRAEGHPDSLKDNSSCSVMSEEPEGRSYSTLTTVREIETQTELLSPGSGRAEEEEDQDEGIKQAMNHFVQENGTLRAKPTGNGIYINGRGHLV
Assay: Binding to human Nectin-4 by SPR
Conditions: SPR dissociation constant; first set (Table 4)
Quick reference: kd of the listed items.
Give the quantity in s⁻¹, number only.

Below: 5 molecules and their reported kd.
>>> testresult("H2L0 (antibody, human IgG1, V domains shown, human IgG1 isotype) VH: QVQLVQSGAEVKKPGASVKVSCKASGYTFTSYWMHWVRQAPGQGLEWMGEIDPSDSYTNYNQKFKGRVTMTLDKSTSTTYMELSSLRSEDTAVYYCARGYGNYGDYWGQGTLVTVSS VL: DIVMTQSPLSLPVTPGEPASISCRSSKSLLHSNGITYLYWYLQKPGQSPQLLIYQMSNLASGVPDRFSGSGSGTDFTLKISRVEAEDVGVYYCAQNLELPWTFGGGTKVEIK")
0.0062
>>> testresult("H3L1 (antibody, human IgG1, V domains shown, human IgG1 isotype) VH: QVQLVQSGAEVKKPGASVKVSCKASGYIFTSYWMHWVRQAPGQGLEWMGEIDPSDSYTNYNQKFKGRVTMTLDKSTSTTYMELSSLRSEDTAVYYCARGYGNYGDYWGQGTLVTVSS VL: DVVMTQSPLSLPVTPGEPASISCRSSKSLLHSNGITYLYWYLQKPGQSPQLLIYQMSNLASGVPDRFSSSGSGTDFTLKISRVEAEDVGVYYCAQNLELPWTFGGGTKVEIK")
0.0087
>>> testresult("H0L0 (antibody, human IgG1, V domains shown, human IgG1 isotype; also called HOLO; humanized 5E7 variant H0L0) VH: QVQLVQSGAEVKKPGASVKVSCKASGYTFTSYWMHWVRQAPGQGLEWMGEIDPSDSYTNYNQKFKGRVTMTRDTSTSTVYMELSSLRSEDTAVYYCARGYGNYGDYWGQGTLVTVSS VL: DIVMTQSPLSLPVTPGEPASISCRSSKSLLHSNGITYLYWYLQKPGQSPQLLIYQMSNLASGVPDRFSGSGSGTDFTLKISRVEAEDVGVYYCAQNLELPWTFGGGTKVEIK")
0.014
>>> testresult("5E7 (antibody, V domains shown) VH: QVQLQQPGAELVKPGASVKLSCKASGYIFTSYWMHWVKQRPGQGLEWIGEIDPSDSYTNYNQKFKGKATLTLDKSSSTTYMQLSSLTSEDSAVYYCVRGYGNYGDYWGQGTTLTVSSASTKGP VL: DVVMTQAAFSNPVTLGTSASISCRSSKSLLHSNGITYLYWYLQKPGQSPQLLIYQMSNLASGVPDRFSSSGSGTDFTLRISRVEAEDVGVYYCAQNLELPWTFGGGTKLEIKRTVAAP")
0.0027
>>> testresult("H1L0 (antibody, human IgG1, V domains shown, human IgG1 isotype) VH: QVQLVQSGAEVKKPGASVKVSCKASGYTFTSYWMHWVRQAPGQGLEWMGEIDPSDSYTNYNQKFKGRVTMTLDTSTSTTYMELSSLRSEDTAVYYCARGYGNYGDYWGQGTLVTVSS VL: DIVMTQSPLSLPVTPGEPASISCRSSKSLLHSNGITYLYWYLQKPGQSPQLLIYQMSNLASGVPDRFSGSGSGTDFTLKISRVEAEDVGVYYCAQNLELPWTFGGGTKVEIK")
0.0072

For reference, reported kd for H3L3 (antibody, human IgG1, V domains shown, human IgG1 isotype) VH: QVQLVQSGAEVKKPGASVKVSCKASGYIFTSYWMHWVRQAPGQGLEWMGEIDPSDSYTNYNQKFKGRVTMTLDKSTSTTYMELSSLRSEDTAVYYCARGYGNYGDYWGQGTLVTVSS VL: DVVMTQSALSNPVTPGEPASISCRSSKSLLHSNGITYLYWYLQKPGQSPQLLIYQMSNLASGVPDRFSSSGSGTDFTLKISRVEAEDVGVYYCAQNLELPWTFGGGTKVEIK stands at 0.007

H3L2 (antibody, human IgG1, V domains shown, human IgG1 isotype) VH: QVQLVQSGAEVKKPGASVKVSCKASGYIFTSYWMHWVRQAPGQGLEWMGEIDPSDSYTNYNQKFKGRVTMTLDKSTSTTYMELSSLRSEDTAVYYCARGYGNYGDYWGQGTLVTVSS VL: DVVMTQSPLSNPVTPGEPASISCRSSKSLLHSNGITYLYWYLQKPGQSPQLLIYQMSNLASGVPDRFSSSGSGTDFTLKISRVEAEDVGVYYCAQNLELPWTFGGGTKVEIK has a reported kd of 0.0081

// field: kd; key: H3L0 (antibody, human IgG1, V domains shown, human IgG1 isotype) VH: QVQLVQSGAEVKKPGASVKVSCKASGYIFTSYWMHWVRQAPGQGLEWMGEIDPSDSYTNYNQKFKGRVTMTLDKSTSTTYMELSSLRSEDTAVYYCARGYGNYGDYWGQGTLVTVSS VL: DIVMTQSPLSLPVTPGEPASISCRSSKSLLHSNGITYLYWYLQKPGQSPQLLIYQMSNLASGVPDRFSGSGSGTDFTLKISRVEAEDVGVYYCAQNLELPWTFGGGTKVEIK ; value = 0.0041

// provenance: patent US20250297004A1
